Data origin: PubChem BioAssay (NCI)

PROCEDURE SUMMARY: NCI Yeast Anticancer Drug Screen. Data for the cln2 rad14 strain (AID 165);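 note: 0% = growth equal to vehicle treated cultures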
EXPERIMENTAL CONDITIONS: S. cerevisiae cln2 rad14 strain; at 50.0 µM unless noted
This is part of a sample that, as a whole, favours compounds with a hit. Of some 79,000 tested, about 15% had one in any assay. Active and inactive are the calls of the source. Cut-off read from the data, not from the text of the source: active = growth inhibition above about 70%; inactive = the rest. Where a SMILES comes first, the peptide text is derived from it. The star is where a group is joined. Cbz = O=C(OCc1ccccc1)*; OBn = c1ccc(CO*)cc1
Answer with one of the outcomes given here: 1 (yes) for active, 0 (no) for inactive

Exercise: Give the logged outcome of this assay for the following molecule: CNC(=O)N(CCCCC(NC(C)=O)C(=O)NCc1ccccc1)Cc1ccccc1 (stereo not drawn)
Key: 0 (no)

Exercise: Please give the result for CCC(C)(O)c1cn(-c2ccc(Cl)cc2)nn1 (stereo not drawn) too.
Key: 0 (no)

Exercise: Another molecule to look at: [N-]=[N+]=CC(=O)CCC(=O)N(c1ccccc1)c1ccccc1
Key: 0 (no)

Exercise: Lookup C/C(=N\NC(=S)N1CCCCCC1)c1nccnc1C
Key: 1 (yes)

Exercise: Item: COc1ccc(N=Nc2nc(N)c(C(N)=O)[nH]2)cc1
Key: 0 (no)

Exercise: Also, CCOC(=O)CSCC(C)C(=O)OC (stereo not drawn) please.
Key: 0 (no)

Exercise: Input COc1cc(C(CC(=O)O)C(=O)O)c([N+](=O)[O-])cc1OC (stereo not drawn)
Key: 0 (no)

Exercise: Param item: CCC[CH2][Sn]1([CH2]CCC)[O]C2C(CO)OC(n3c(Br)c(C#N)c4c(N)ncnc43)C2[O]1 (stereo not drawn)
Key: 1 (yes)

Exercise: What about this molecule? COC(=O)C1CC2(CCC1=O)Cc1ccccc1C2=O (stereo not drawn)
Key: 0 (no)

Exercise: Would you kindly repeat that for C#CCSC(=S)NNc1ccccc1 ?
Key: 0 (no)

Exercise: And for CCN(CC)c1ccc2c(c1)C(=O)c1ccccc1-2 ?
Key: 0 (no)

Exercise: Now this one: CC(C)OC(=O)/C=C/CCCC1CCCCC1
Key: 0 (no)

Exercise: Try this molecule next: S=C1NCN2CCN(CC2)CNC(=S)C(=S)NCN2CCN(CC2)CNC1=S
Key: 0 (no)

Exercise: Follow-up entry: COC(=O)C(Cc1ccc(O)cc1)NC(=O)C(CC(=O)OCc1ccccc1)NC(=O)OCc1ccccc1 (stereo not drawn) (Cbz-Asp(OBn)-Tyr-OMe; configuration not given here)
Key: 0 (no)

Exercise: Further, for O=c1c2cc(Cl)ccc2c2ccc(Cl)cc2c(=O)n1-c1ccc2c(c1)Cc1ccccc1-2 ?
Key: 0 (no)

Exercise: Quick one: FC1=C(F)C2(F)C3CCC(O3)C2(F)C(Br)=C1F (stereo not drawn)
Key: 0 (no)

Exercise: // next record O=C(c1ccc(Cl)cc1)c1ccc(OCCCOc2ccc(C(=O)c3ccc(Cl)cc3)cc2Cl)c(Cl)c1
Key: 0 (no)

Exercise: Entry to check: O=C(Nc1cccc(I)c1)OCCCl
Key: 0 (no)

Exercise: Follow-up item: O=C(C(=C(I)I)c1ccccc1)c1ccccc1
Key: 0 (no)

Exercise: CC1(C)C2=CC3(C)N(CN2c2ccccc21)c1ccccc1C3(C)C (stereo not drawn) , same question.
Key: 0 (no)

Exercise: Quick one: CCN(CC)CCN=Cc1ccccc1OC
Key: 0 (no)

Exercise: Repeat with CSc1nc(SC)c2cnn(CC3CO3)c2n1 (stereo not drawn)
Key: 0 (no)

Exercise: Param item: CC1=NN2C(c3ccc([N+](=O)[O-])cc3)=CSC2=NC(C)(C)C1
Key: 0 (no)

====

PROCEDURE SUMMARY: NCI Yeast Anticancer Drug Screen. Data for the mec2-1 strain (AID 157)
EXPERIMENTAL CONDITIONS: S. cerevisiae mec2-1 strain, stronger effect = higher value; at 50.0 µM unless noted
The panel holds about 79,000 compounds, 15% with a hit somewhere; the sample as a whole holds those more often.
Decision: growth inhibition compared against -10%; not below it gives T, below it gives F.

Exercise: Textbook exercise: given the entry OCC1OC(OC2C(CO)OC(O)C(O)C2O)C(O)C(O)C1O (stereo unspecified) , state whether its growth inhibition is greater than or equal to -10%.
Key: T

Exercise: Same lookup for Cc1ccc(S(=O)(=O)N(C)CCCC#N)cc1 , please.
Key: F

Exercise: Next compound up: O=C(O)c1c[nH]c2cc(OCc3ccc4ccccc4c3)ccc2c1=O
Key: T

Exercise: Request: O=C1/C(=C/c2ccccc2)CCC2CCCCC12 (stereo unspecified)
Key: T

Exercise: Moving on to COc1ccc2c(c1)Cc1cc(NC(C)=O)ccc1-2
Key: F

====

PROCEDURE SUMMARY: NCI Yeast Anticancer Drug Screen. Data for the mec2-1 strain (AID 157)
EXPERIMENTAL CONDITIONS: S. cerevisiae mec2-1 strain, stronger effect = higher value; at 50.0 µM unless noted
This is part of a sample that, as a whole, favours compounds with a hit. Of some 79,000 tested, about 15% had one in any assay.
For each of the compounds below, state its growth inhibition.
Just the number please, in %, no unit attached.

Exercise: Give the measured growth inhibition of O=C1NCC2(CCN(CCCC3(c4ccc(F)cc4)OCCO3)CC2)N1c1ccccc1 .
Key: -0.05

Exercise: What about this compound? COC1=CC(=O)c2cc3ccc(OC)c(N)c3nc2C1=O
Key: -7.2

Exercise: Moving on to O=C(O)[C@H](Cc1ccccc1)N1C(=O)N[C@@H](Cc2ccccc2)C1=O
Key: -1.7

Exercise: Quick one: CC1CCCCN1C(=O)Nc1ccc(Cl)cc1[N+](=O)[O-] (stereo unspecified)
Key: 44.2

Exercise: O=c1c(-c2ccccc2)c[nH]c2ccccc12 , same question.
Key: 16.6

Exercise: Same read-out for COC(C)(/C(C)=N/O)c1ccc(-c2ccccc2)cc1 (stereo unspecified) ?
Key: -7.95

Exercise: Please give the result for COc1ccc(/C=N/N2CN(C(C)C(=O)O)B(NCCC(C)C)N=C2N)cc1OC (stereo unspecified) too.
Key: -10.3

Exercise: Request: CCOC(=O)Cc1nc2ccccc2[nH]1
Key: -7.85

Exercise: # iterate: CC(=O)NC(C(=O)O)C(C)C (stereo unspecified)
Key: -0.75

Exercise: Try CCOC(OCC)c1cc(=O)[nH]c(NC(C)=O)n1 next.
Key: 0.05

Exercise: What about this compound? CC(C)c1cccc(C(C)C)c1NC(=O)N1CCCCC1
Key: -16.2

Exercise: CCCCN(CCCC)CCCC(O)c1c2ccccc2nc2ccccc12 (stereo unspecified) ?
Key: -5.95

Exercise: How about CCOC(=O)c1c(NS(=O)(=O)c2ccc(C)cc2)sc(C)c1-c1ccccc1 ?
Key: -0.45

Exercise: Query CCOc1nc(=O)n(C2OC(CO)C(O)C2O)s1 (stereo unspecified) next
Key: -1.35

Exercise: Try the compound O=C(O)C1=Cc2ccccc2OC1
Key: -19.9

Exercise: Please do the same for CCCCOC(=O)/C=C/C(=O)OCCCC as well.
Key: 9.6

Exercise: Next up: Nc1ncnc(N)c1NC(=O)c1ccc2ccccc2c1
Key: 35.1

Exercise: Subsequent entry: CC1(C)SCc2nc3ccccc3n21
Key: -34.9

Exercise: What do you have for O=C(c1cccc(C(=O)N2CCOCC2)n1)N1CCOCC1 ?
Key: 17.1

Exercise: Also check CC1(O)CC(=O)c2c(cc3ccc(-c4c5c(c(O)c6c(O)cccc46)C(=O)CC(C)(O)C5)c(O)c3c2O)C1 (stereo unspecified)
Key: 48.1

Exercise: Next compound: CCCCCCC(C)OB(OC(C)CCCCCC)OC(C)CCCCCC (stereo unspecified)
Key: -49

Exercise: Queued: CSCCSC
Key: 4.6

Exercise: Can you check COC(=O)c1cc(Br)cc(Br)c1N next?
Key: -12.9

Exercise: And then O=C(CC1CCCCC1)OCCOCCO , what is it?
Key: -5.7

Exercise: Can you check COc1cccc(C(c2ccccc2)C(CC(=O)O)CC(=O)O)c1 (stereo unspecified) next?
Key: 8.6

Exercise: Same read-out for CC(=O)CC(=O)Nc1ccc2ccccc2c1 ?
Key: -12

====

PROCEDURE SUMMARY: NCI Yeast Anticancer Drug Screen. Data for the mec2-1 strain (AID 157)
EXPERIMENTAL CONDITIONS: S. cerevisiae mec2-1 strain, stronger effect = higher value; at 50.0 µM unless noted
The panel holds about 79,000 compounds, 15% with a hit somewhere; the sample as a whole holds those more often.
PARAMETER: growth inhibition (%)
Number only, in %; omit the unit.

Exercise: State the recorded growth inhibition for this entry: Cn1c2ccccc2c2nnc(NCCCO)nc21
Key: 21.7

Exercise: Okay, and CCn1c2ccccc2c2cc(N=Nc3ccc4c(c3)c3ccccc3n4CC)ccc21 ?
Key: 14.7

Exercise: Let us now turn to CCOC(=O)c1c(-c2ccc([N+](=O)[O-])cc2)c(C=O)n(-c2ccccc2)c1C
Key: -5.45

Exercise: Would you mind doing O=S1(=O)OCCOS(=O)(=O)C1(Br)Cc1ccccc1 as well?
Key: -40.6

Exercise: Repeat for the following compound: CC(C)COC(c1ccccc1)c1ccccc1
Key: -9.75

Exercise: Another compound to check: O=C1/C(=C\C=C\c2ccccc2)CCCC/C1=C\C=C\c1ccccc1
Key: -0.35

Exercise: Then CCOC(=O)C1=C(O)c2ccccc2C(=O)C1=O ?
Key: 3.8

Exercise: Likewise for CC(C)CNC(=O)c1ccccc1Cl ?
Key: 20.1

Exercise: Further, for OC(CCN1CC2CCC(CC2)C1)(Cc1ccccc1)c1cccs1 (stereo unspecified) ?
Key: 2.7

Exercise: // query: CCCCCC=C(c1cc(Cl)c(OC)c(C(N)=O)c1)c1cc(Cl)c(OC)c(C(N)=O)c1
Key: -9.35

Exercise: For O=S(=O)(NCCN1CCNC1=S)c1ccc(Cl)c(Cl)c1 then?
Key: -12.7
